The measured values listed here are drawn from the supplement of paper PMC11451515.

Give measured cell viability for each item. Keep answers brief.
Test system: SEM cells
Measurement notes: cell viability relative to DMSO control; higher = less cytotoxic
Particulars: HPLM + 10% dialyzed FBS; 48 h; 0.00702 µM
Give the number first and the unit second.

Some molecules with recorded cell viability:
Molecular string: NC(=O)N/N=C/c1ccc([N+](=O)[O-])o1
Readout value: 101%
//
Molecular string: CN(C)c1nc(Cc2ccc(NC(=O)c3ccc(C(F)(F)F)cc3)cc2)nc(N(C)C)c1CC(=O)O
Readout value: 106%
//
Molecular string: O=C(O)CCCCCC(=O)NN=C1CCCC1
Readout value: 99.5%
//
Molecular string: CC(=O)OCC(=O)[C@@]1(O)CC[C@H]2[C@@H]3CCC/4=C/C(=O)CC[C@]4(C)[C@H]3C(=O)C[C@]12C
Readout value: 112%

Let us examine a further case.
Req: What value of cell viability has been reported for the following molecule? C=CC(=O)Nc1cccc(Sc2nc(Nc3ccc(N4CCN(C)CC4)cc3)ncc2Cl)c1
Resp: 113%
